tested on: SEM cells; test: cell viability relative to DMSO control; higher = less cytotoxic; details: RPMI 5 mM glucose + 10% dialyzed FBS; 48 h; 5.12 µM
Define the label as Criterion met when cell viability is strictly less than 90% and as Criterion not met in all remaining cases.

Sample answers from the record:
Cc1cccc(-c2[nH]c(C(C)(C)C)nc2-c2ccc3c(c2)OCO3)n1	Criterion not met
Oc1ccc([C@@H]2Oc3ccc(O)cc3[C@@H]3CCC[C@@H]32)cc1	Criterion not met
CC(C)(O)C(=O)Nc1ccc([N+](=O)[O-])c(C(F)(F)F)c1	Criterion not met
Nc1nc(N)c(N=O)c(OCC2CCCCC2)n1	Criterion met
CS[C@H]1SC[C@@H]2C(=O)N(C)[C@H](C(C)C)C(=O)OC[C@H](NC(=O)c3cnc4ccccc4n3)C(=O)N[C@H](C)C(=O)N(C)[C@H]1C(=O)N(C)[C@H](C(C)C)C(=O)OC[C@H](NC(=O)c1cnc3ccccc3n1)C(=O)N[C@H](C)C(=O)N2C	Criterion met
N#CC[C@H](C1CCCC1)n1cc(-c2ncnc3[nH]ccc23)cn1	Criterion met

Input CCC(C1CCC(C)C(O1)C(C)C(O)C(C)C(=O)C(CC)C2OC\3(O[C@]4(CC[C@@](C)(O4)C5CC[C@@](O)(CC)C(C)O5)C(O)\C=C3)C(C)CC2C)C([O-])=O (stereo not given in full) ; condition: cell viability strictly below 90%. Does it hold?
Criterion met

Input "OCCN(CCO)c1nc(N2CCCCC2)c2nc(N(CCO)CCO)nc(N3CCCCC3)c2n1" ; condition: cell viability strictly below 90%. Does it hold?
Criterion not met

Input "CC(C)n1cnc2c(NCCc3ccc(O)cc3)nc(-c3csc4ccccc34)nc21" ; condition: cell viability strictly below 90%. Does it hold?
Criterion met

----------
system: SEM cells; experiment: cell viability relative to DMSO control; higher = less cytotoxic; conditions: RPMI 5 mM glucose + 10% dialyzed FBS; 48 h; 15.4 µM
Can you tell me cell viability for the items I'm about to list?
For clarity, give the value followed by its unit.

Known cell viability results, listed for orientation:
CC(C)(C)OC(=O)Nc1ccc(-c2cc(C(=O)NCCCCCCC(=O)NO)no2)cc1	3.52%
Cc1nc(N)ncc1-c1nc(N2CCOCC2)c2sc(C(C)(C)O)cc2n1	6.82%
CC1=C(/C=C/C(C)=C/C=C/C(C)=C/C(=O)O)C(C)(C)CCC1	98.3%
CC(C)[N+]1(C)C2CCC1CC(OC(=O)C(CO)c1ccccc1)C2.O.[Br-] (stereo unspecified)	40.3%
N#Cc1ccc(NC(=O)Nc2ccccc2Br)c2nn[nH]c12	114%
CN1CCC(CC1)=C2C3=C(C=CC=C3)\C=C/C4=C2C=CC=C4	112%
O=C(NCC1CCOCC1)c1cnc(Nc2ccc(Cl)cc2Cl)nc1C(F)(F)F	123%
CCN(CC)CCCC(C)Nc1nc(C)cc(Nc2ccc3nc(C)cc(N)c3c2)n1 (stereo unspecified)	99.6%
C[C@H](NCc1ccc(OCc2cccc(F)c2)cc1)C(N)=O	20.6%
CCCCCCCCCCCC/1=C(O)/C(=O)/C=C(O)\C1=O	146%

Item under review: "CC(C)Cn1cnc2c(N)nc3ccccc3c21" . Reported cell viability?
90.6%

----------
Can you tell me cell viability for the items I'm about to list?
test system: SEM cells; test: cell viability relative to DMSO control; higher = less cytotoxic; settings: RPMI 5 mM glucose + 10% FBS; 48 h; 0.569 µM
One number for each entry, in %.

Known cell viability results, listed for orientation:
Cc1cccc2c1CC[C@H](CN1CCC(c3c(Cl)cccc3Cl)CC1)C[C@@H]2O	142
CC(C)CC(N(C)C)C1(c2ccc(Cl)cc2)CCC1 (stereo not drawn)	121

Now examine the next entry.
Item under review: "C[C@H](NCc1ccc(OCc2cccc(F)c2)cc1)C(N)=O" . Reported cell viability?
60.1

----------
Can you tell me cell viability for the items I'm about to list?
tested on: P12-Ichikawa; experiment: cell viability relative to DMSO control; higher = less cytotoxic; conditions: HPLM + 10% dialyzed FBS; 48 h; 0.000781 µM
Numbers only, in %.

Known cell viability results, listed for orientation:
NC(CO)C(=O)NNCc1ccc(O)c(O)c1O (stereo unspecified)	103
N#CC[C@H](C1CCCC1)n1cc(-c2ncnc3[nH]ccc23)cn1	95.7
CC(C)CC(N(C)C)C1(c2ccc(Cl)cc2)CCC1 (stereo unspecified)	114
CCN(CC)CCCC(C)Nc1nc(C)cc(Nc2ccc3nc(C)cc(N)c3c2)n1 (stereo unspecified)	101
CC(C)(C)C1=CC(=C(NC(=O)C/2=C/NC3=C(C=CC=C3)C2=O)C=C1O)C(C)(C)C	123
C[N]1N=CC=C1C/2=C(\C)N(C(=O)C(=C2)/C(=O)NCC3=NC=C(C=C3)[S+](C)([O-])=O)C4=CC=CC(=C4)C(F)(F)F	107
O=C1CCCC(=O)C1C(=O)c1ccc(C(F)(F)F)cc1[N+](=O)[O-]	106
C[C@@H](N)C1CC[C@@H](CC1)C(=O)NC2=CC=NC=C2 (stereo partly specified)	109

List reported cell viability for each of these compounds:
1. C[C@H]1Oc2cc(cnc2N)-c2c(nn(C)c2C#N)CN(C)C(=O)c2ccc(F)cc21
2. N#Cc1ccnc(N2C(=O)CC[C@H]2C(=O)N(c2cncc(F)c2)[C@H](C(=O)NC2CC(F)(F)C2)c2ccccc2Cl)c1
3. Oc1c(Cl)cc(Cl)c2cccnc12

[118, 91.1, 107]

----------
Can you tell me cell viability for the items I'm about to list?
system: SEM cells; test: cell viability relative to DMSO control; higher = less cytotoxic; conditions: HPLM + 10% dialyzed FBS; 48 h; 0.19 µM
Give bare numbers, in %.

COC(=O)N[C@H](C(=O)N1CCC[C@H]1c1ncc(-c2ccc(-c3ccc(-c4cnc([C@@H]5CCCN5C(=O)[C@@H](NC(=O)OC)C(C)C)[nH]4)cc3)cc2)[nH]1)C(C)C	126
NC(CO)C(=O)NNCc1ccc(O)c(O)c1O (configuration not stated)	99.8
C[C@H](Cc1ccc(O)c(O)c1)[C@@H](C)Cc1ccc(O)c(O)c1	116
O=C1CCCC(=O)C1C(=O)c1ccc(C(F)(F)F)cc1[N+](=O)[O-]	108

List reported cell viability for each of these compounds:
1. CC(C)Cn1cnc2c(N)nc3ccccc3c21
2. CC(C)CC(N(C)C)C1(c2ccc(Cl)cc2)CCC1 (configuration not stated)

1. 110
2. 117

List reported cell viability for each of these compounds:
1. N[C@@H](Cc1ccc(O)c(O)c1)C(=O)O
2. C1COC(NC(C2CC2)C2CC2)=N1
3. Nc1ccc([S+](=O)([O-])Nc2ncccn2)cc1
4. CN(C)CCOc1ccc(/C(=C(/CCCl)c2ccccc2)c2ccccc2)cc1
5. N#C/C(=C1/Nc2ccccc2S1)c1ccnc(OCc2ccc(CN3CCOCC3)cc2)n1

1. 108
2. 87.9
3. 117
4. 85.6
5. 108

Which measured cell viability belongs to "CN(C)CCc1c[nH]c2ccc(C[S+](=O)([O-])N3CCCC3)cc12" , tested on SEM cells?
97.5

----------
test system: SEM cells; assay: cell viability relative to DMSO control; higher = less cytotoxic; conditions: RPMI 5 mM glucose + 10% dialyzed FBS; 48 h; 0.0632 µM
Can you tell me cell viability for the items I'm about to list?
Numbers only, in %.

List reported cell viability for each of these compounds:
1. COc1cc2c(Nc3ccc(Cl)c(Cl)c3F)ncnc2cc1OC[C@@H]1C[C@@H]2CN(C)C[C@@H]2C1
2. Oc1ccc([C@@H]2Oc3ccc(O)cc3[C@@H]3CCC[C@@H]32)cc1
3. CN(C)CCOc1ccc(/C(=C(/CCCl)c2ccccc2)c2ccccc2)cc1
4. CCCCCN(CCC12CC3CC(CC(C3)C1)C2)C(=O)NCCCc1ccncc1
5. COc1ccc2[nH]cc(CCNC(C)=O)c2c1
6. Cc1c(C(=O)c2cccc3ccccc23)c2cccc3c2n1[C@H](CN1CCOCC1)CO3
7. C[C@H](NCc1ccc(OCc2cccc(F)c2)cc1)C(N)=O
8. N#Cc1ccnc(N2C(=O)CC[C@H]2C(=O)N(c2cncc(F)c2)[C@H](C(=O)NC2CC(F)(F)C2)c2ccccc2Cl)c1

[121, 96.1, 117, 105, 125, 98, 102, 91.9]

Item under review: "COc1ccc(-c2oc3cc(OC)ccc3c2C(=O)c2ccc(C#N)cc2)cc1" . Reported cell viability?
150

----------
Can you tell me cell viability for the items I'm about to list?
test system: SEM cells; experiment: cell viability relative to DMSO control; higher = less cytotoxic; conditions: RPMI 5 mM glucose + 10% FBS; 48 h; 15.4 µM
For clarity, give the value followed by its unit.

Cc1cccc2c1CC[C@H](CN1CCC(c3c(Cl)cccc3Cl)CC1)C[C@@H]2O	72.5%
Nc1ccc([S+](=O)([O-])Nc2ncccn2)cc1	114%
CN1CCN(CCCN2c3ccccc3Sc3ccc(Cl)cc32)CC1.O=C(O)/C=C\C(=O)O.O=C(O)/C=C\C(=O)O	115%
COc1ccc(-c2oc3cc(OC)ccc3c2C(=O)c2ccc(C#N)cc2)cc1	123%
N#Cc1ccnc(N2C(=O)CC[C@H]2C(=O)N(c2cncc(F)c2)[C@H](C(=O)NC2CC(F)(F)C2)c2ccccc2Cl)c1	14.9%
CC[C@H]1CN2CCc3cc(OC)c(OC)cc3[C@@H]2C[C@@H]1C[C@H]1NCCc2cc(OC)c(OC)cc21	9.05%

List reported cell viability for each of these compounds:
1. O=C1N\C=N/C2=C1C=N[NH]2
2. C[C@H](Cc1ccc(O)c(O)c1)[C@@H](C)Cc1ccc(O)c(O)c1
3. CC(C)(C)C1=CC(=C(NC(=O)C/2=C/NC3=C(C=CC=C3)C2=O)C=C1O)C(C)(C)C
4. Nc1ccn([C@H]2CS[C@@H](CO)O2)c(=O)n1

["88.8%", "101%", "116%", "153%"]
